The values you see were collected from a melting point compilation (Tetko et al.; mined from patent text by program, amines drawn as free bases though some values may be those of a salt).

Task for the reader: assign each of the following compounds its reported melting point.

### Prompt Complete the entry with melting point for Clc1cccc(Nc2ncnc3[nH]nc(NCc4ccc5c(c4)OCO5)c23)c1
### Response 220 to 222 °C

### Prompt Complete the entry with melting point for COc1cc2ncnc(N3CCc4cccc(C)c43)c2cc1OC
### Response 146 to 147 °C

### Prompt Complete the entry with melting point for COC(=O)c1ccc(NC(C)=O)c(I)c1
### Response 140 to 141 °C

### Prompt Complete the entry with melting point for O=c1c2cnc(-c3ccccc3)nc2sn1Cc1ccccn1
### Response 154 to 156 °C

### Prompt Complete the entry with melting point for CSC(=NC(C)=O)N(C)N=Cc1ccccc1
### Response 102 to 104 °C

### Prompt Complete the entry with melting point for Cc1ccc(Oc2ccc(-n3cncn3)cc2)c(O)c1
### Response 107 to 109 °C

### Prompt Complete the entry with melting point for O=C(O)CC[C@H]1O[C@@H](c2ccccc2Cl)c2cc(Cl)ccc2N(Cc2ccccc2)C1=O (relative stereo)
### Response 135 to 137 °C

### Prompt Complete the entry with melting point for Cc1nc2ncnn2c(O)c1F
### Response 273 °C

### Prompt Complete the entry with melting point for Cc1cc(SCc2ccc(-c3ccc(C(F)(F)F)cc3)cc2)ccc1OCC(=O)O
### Response 140 to 141 °C

### Prompt Complete the entry with melting point for COC(=O)c1cnn(-c2cc(Cl)cc(Cl)c2)c1C(N)=O
### Response 220 to 222 °C

### Prompt Complete the entry with melting point for Cn1c(C#N)c(Br)n(-c2ccc(Cl)cc2)c1=O
### Response 185 °C

### Prompt Complete the entry with melting point for N#Cc1c(N)nc2ccc(N3CCN(Cc4ccccc4)CC3)cc2c1NCc1ccccc1
### Response 202 °C

### Prompt Complete the entry with melting point for Nc1nc(/C=C/c2ccc([N+](=O)[O-])cc2)cs1
### Response 278 °C

### Prompt Complete the entry with melting point for COC(=O)CCc1cc2cc(Cl)ccc2n1S(=O)(=O)c1ccc(C(F)(F)F)cc1
### Response 82 to 86 °C

### Prompt Complete the entry with melting point for CN(C)CCNC(=O)N1CCN(c2ccc(F)cc2)CC1
### Response 99 to 101 °C

### Prompt Complete the entry with melting point for COC(=O)c1cc(Oc2ccc([N+](=O)[O-])cc2)cc(Oc2ccc([N+](=O)[O-])cc2)c1
### Response 180 to 182 °C

### Prompt Complete the entry with melting point for CC(C)(CNc1c(C(N)=O)cnn2cccc12)N1CCOCC1
### Response 179 °C

### Prompt Complete the entry with melting point for CC1(C)NC(=O)c2ccccc21
### Response 159 to 160 °C

### Prompt Complete the entry with melting point for CC1(C)CCC(C)(C)c2cc(C#Cc3ccc(C#N)cc3)ccc21
### Response 157 °C

### Prompt Complete the entry with melting point for O=S(=O)(Oc1ccc2sc(-c3ccc(OCCN4CCCC4)cc3)cc2c1)C(F)(F)F
### Response 95 to 99 °C

### Prompt Complete the entry with melting point for CCOC(=O)c1ccc(-n2nc(C(F)(F)F)cc2-c2ccc(S(C)(=O)=O)cc2)cc1
### Response 159 to 161 °C

### Prompt Complete the entry with melting point for CONC(=O)c1[nH]c(C)c(-c2nc3ccc(C(=O)c4ccccc4)cc3[nH]2)c1C
### Response 203 to 205 °C

### Prompt Complete the entry with melting point for Nc1sc2c(c1C(=O)c1ccc(Cl)cc1)CCN(Cc1ccccc1)C2
### Response 155 to 157 °C

### Prompt Complete the entry with melting point for C=CCOc1ccc(Cl)c2c(=O)c3ccccc3sc12
### Response 135 to 136 °C

### Prompt Complete the entry with melting point for O=C(Nc1ccccc1)Nc1cc(Cl)ccc1C(=O)O
### Response 186 to 188 °C

### Prompt Complete the entry with melting point for CC(=O)Nc1nc2c(s1)-c1nc(-c3ccccc3)ncc1C2
### Response > 300 °C

### Prompt Complete the entry with melting point for CCCCc1nc(CO)c(C(=O)NCC(=O)O)n1Cc1ccc(-c2ccccc2C(=O)O)cc1
### Response > 110 °C

### Prompt Complete the entry with melting point for CC(=O)Oc1cc(C(C)C)c(NC(=O)CN2CCN(CCSc3nc4ccccc4o3)CC2)c(C(C)C)c1
### Response 126 to 129 °C

### Prompt Complete the entry with melting point for Cc1ccc(S(=O)(=O)NC(=O)NCCC(F)=C(F)F)cc1
### Response 134 to 136 °C

### Prompt Complete the entry with melting point for CCn1cc(C(=O)O)c(=O)c2cc(F)c(-c3csc(CN)n3)c(F)c21
### Response 199 to 203 °C

### Prompt Complete the entry with melting point for COc1cccc2c1nnn2C1CCCCC1
### Response 118 to 120 °C

### Prompt Complete the entry with melting point for COc1ccc2ccc(O)c([N+](=O)[O-])c2c1
### Response 130 to 131 °C

### Prompt Complete the entry with melting point for CC1C(=S)Nc2c1cc(F)c(F)c2F (configuration not stated)
### Response 177 to 178 °C

### Prompt Complete the entry with melting point for COc1cccc2cc(C)c(-c3ccccc3)nc12
### Response 105 °C

### Prompt Complete the entry with melting point for COC(=O)c1ccc(OCCCO/N=C/c2cn(Cc3ccccc3)c3ccccc23)cc1O
### Response 100 to 102 °C

### Prompt Complete the entry with melting point for COc1cc2c(cc1OC)-c1c(C#N)sc(=O)n1CC2
### Response 205 to 207 °C

### Prompt Complete the entry with melting point for NC1=NN(c2cccc(F)c2)CC1
### Response 146 to 147 °C

### Prompt Complete the entry with melting point for CN(C)C(=O)CCc1c[nH]c(-c2cccs2)c1
### Response 107 to 109 °C

### Prompt Complete the entry with melting point for COc1ccc(N2CCN(c3c(C)c(C)c4c(c3C)C(O)(c3ccc(OC(F)(F)F)cc3)C(C)(C)O4)CC2)cc1 (configuration not stated)
### Response 175 to 176 °C

### Prompt Complete the entry with melting point for CCCCN(CC(=O)OCc1ccccc1)S(=O)(=O)c1ccc(N2CCC(NC[C@H](O)c3ccc(O)c(NS(C)(=O)=O)c3)CC2)cc1
### Response 59 to 64 °C

### Prompt Complete the entry with melting point for CCCC(CCC)C(=O)NCC(=O)CCCCCCCCCCCCN(N)C(=O)n1cc(F)c(=O)[nH]c1=O
### Response 116 to 118 °C

### Prompt Complete the entry with melting point for COC(=O)/C=C/n1cnc2ccc(OC)cc2c1=O
### Response 184 to 186 °C
